Test system: Escherichia coli ATCC BAA-2523
Assay type: cell-based
Conditions: ATCC BAA-2523
Bridge positions count the residues as written; N and C are the ends. Square brackets hold non-standard residues; d marks the D form. Peptide text beside a SMILES is read from it. * marks the point of attachment. Heptanoyl(6-Me) = CC(C)CCCCC(=O)*; Sulfomethyl = O=S(=O)(O)C*; X1 = CC[C@H](C)CCCCC(=O)*; dDab = NCC[C@@H](N)C(=O)O; Heptanoyl = CCCCCCC(=O)*; Orn = NCCC[C@H](N)C(=O)O; Dab = NCC[C@H](N)C(=O)O; Dap = NC[C@H](N)C(=O)O
recorded-endpoint: MIC (µg/mL)
Field format: number, assumed µg/mL, no unit text.

## Input Notebook entry, Escherichia coli ATCC BAA-2523 assay: MIC of CC[C@H](C)CCCCC(=O)N[C@@H](CCN)C(=O)N[C@H](C(=O)N[C@H](CO)C(=O)N[C@H]1CCNC(=O)[C@H]([C@@H](C)O)NC(=O)[C@H](CCCN)NC(=O)[C@H](CCN)NC(=O)[C@H]([C@@H](C)O)NC(=O)[C@@H](Cc2ccccc2)NC(=O)[C@H](CCN)NC1=O)[C@@H](C)O [Compound 86] (X1-[Dab]T[dS][Dab][Dab][dF]T[Dab][Orn]T; lactam 4-C) = ?
## Output 0.03

## Input Notebook entry, Escherichia coli ATCC BAA-2523 assay: MIC of CCCCCCC(=O)N[C@@H](CN)C(=O)N[C@H](C(=O)N[C@H](CCN)C(=O)N[C@H]1CCNC(=O)[C@H]([C@@H](C)O)NC(=O)[C@H](CCN)NC(=O)[C@H](CCN)NC(=O)[C@H](CC(C)C)NC(=O)[C@@H](CC(C)C)NC(=O)[C@H](CCN)NC1=O)[C@@H](C)O [Compound 99] (Heptanoyl-[Dap]T[dDab][Dab][Dab][dL]L[Dab][Dab]T; lactam 4-C) = ?
## Output 0.06

## Input Notebook entry, Escherichia coli ATCC BAA-2523 assay: MIC of CC(C)CCCCC(=O)N[C@@H](CCN)C(=O)N[C@H](C(=O)N[C@H](COCS(=O)(=O)O)C(=O)N[C@H]1CCNC(=O)[C@H]([C@@H](C)O)NC(=O)[C@H](CCN)NC(=O)[C@H](CCN)NC(=O)[C@H]([C@@H](C)O)NC(=O)[C@@H](Cc2ccccc2)NC(=O)[C@H](CCN)NC1=O)[C@@H](C)O [Compound 103] ({Heptanoyl(6-Me)}-[Dab]T[dS](Sulfomethyl)[Dab][Dab][dF]T[Dab][Dab]T; lactam 4-C) = ?
## Output 0.03

Next item in the queue.
## Input Notebook entry, Escherichia coli ATCC BAA-2523 assay: MIC of CC(C)CCCCC(=O)N[C@@H](CCN)C(=O)N[C@H](C(=O)N[C@H](CO)C(=O)N[C@H]1CCNC(=O)[C@H]([C@@H](C)OCS(=O)(=O)O)NC(=O)[C@H](CCN)NC(=O)[C@H](CCN)NC(=O)[C@H]([C@@H](C)O)NC(=O)[C@@H](Cc2ccccc2)NC(=O)[C@H](CCN)NC1=O)[C@@H](C)O [Compound 106] ({Heptanoyl(6-Me)}-[Dab]T[dS][Dab][Dab][dF]T[Dab][Dab]T(Sulfomethyl); lactam 4-C) = ?
## Output 0.03

* * *

Test system: Pseudomonas aeruginosa ATCC 27853
Type: cell-based
Settings: ATCC 27853
Bridge positions count the residues as written; N and C are the ends. Square brackets hold non-standard residues; d marks the D form. Peptide text beside a SMILES is read from it. * marks the point of attachment. Heptanoyl(6-Me) = CC(C)CCCCC(=O)*; dOrn = NCCC[C@@H](N)C(=O)O; Nonanoyl = CCCCCCCCC(=O)*; Heptanoyl = CCCCCCC(=O)*; Orn = NCCC[C@H](N)C(=O)O; dDap = NC[C@@H](N)C(=O)O; Dab = NCC[C@H](N)C(=O)O
Recorded measurements of MIC, one per entry

## Input Given the molecule CC(C)CCCCC(=O)N[C@@H](CCN)C(=O)N[C@H](C(=O)N[C@H](CO)C(=O)N[C@H]1CCNC(=O)[C@H]([C@@H](C)O)NC(=O)[C@H](CCN)NC(=O)[C@H](CCCN)NC(=O)[C@H]([C@@H](C)O)NC(=O)[C@@H](Cc2ccccc2)NC(=O)[C@H](CCN)NC1=O)[C@@H](C)O [Compound 77] ({Heptanoyl(6-Me)}-[Dab]T[dS][Dab][Dab][dF]T[Orn][Dab]T; lactam 4-C) , what is its reported MIC?
## Output >64 µg/mL

## Input Given the molecule CCCCCCCCC(=O)N[C@@H](CCN)C(=O)N[C@H](C(=O)N[C@H](CCCN)C(=O)N[C@H]1CCNC(=O)[C@H]([C@@H](C)O)NC(=O)[C@H](CCN)NC(=O)[C@H](CCN)NC(=O)[C@H]([C@@H](C)O)NC(=O)[C@@H](Cc2ccccc2)NC(=O)[C@H](CCN)NC1=O)[C@@H](C)O [Compound 25] (Nonanoyl-[Dab]T[dOrn][Dab][Dab][dF]T[Dab][Dab]T; lactam 4-C) , what is its reported MIC?
## Output 0.5 µg/mL

Others:
## Input Given the molecule CCCCCCC(=O)N[C@@H](CCN)C(=O)N[C@H](C(=O)N[C@H](CN)C(=O)N[C@H]1CCNC(=O)[C@H]([C@@H](C)O)NC(=O)[C@H](CCN)NC(=O)[C@H](CCN)NC(=O)[C@H]([C@@H](C)O)NC(=O)[C@@H](Cc2ccccc2)NC(=O)[C@H](CCN)NC1=O)[C@@H](C)O [Compound 4] (Heptanoyl-[Dab]T[dDap][Dab][Dab][dF]T[Dab][Dab]T; lactam 4-C) , what is its reported MIC?
## Output 0.03 µg/mL

* * *

System: Escherichia coli ATCC BAA-2523
Format: cell-based
Settings: ATCC BAA-2523
Bridge positions count the residues as written; N and C are the ends. Square brackets hold non-standard residues; d marks the D form. Peptide text beside a SMILES is read from it. * marks the point of attachment. Heptanoyl = CCCCCCC(=O)*; Orn = NCCC[C@H](N)C(=O)O; Dab = NCC[C@H](N)C(=O)O; Dap = NC[C@H](N)C(=O)O
recorded-endpoint: MIC (µg/mL)
Field format: number, assumed µg/mL, no unit text.

## Input Given the compound CCCCCCC(=O)N[C@@H](CCCN)C(=O)N[C@H](C(=O)N[C@H](CO)C(=O)N[C@H]1CCNC(=O)[C@H]([C@@H](C)O)NC(=O)[C@H](CCN)NC(=O)[C@H](CCN)NC(=O)[C@H]([C@@H](C)O)NC(=O)[C@@H](Cc2ccccc2)NC(=O)[C@H](CCN)NC1=O)[C@@H](C)O [Compound 59] (Heptanoyl-[Orn]T[dS][Dab][Dab][dF]T[Dab][Dab]T; lactam 4-C) , what is its reported MIC?
## Output 0.25

Others:
## Input Given the compound CCCCCCC(=O)N[C@@H](CCN)C(=O)N[C@H](C(=O)N[C@H](CO)C(=O)N[C@H]1CCNC(=O)[C@H]([C@@H](C)O)NC(=O)[C@H](CCN)NC(=O)[C@H](CCN)NC(=O)[C@H]([C@@H](C)O)NC(=O)[C@@H](Cc2ccccc2)NC(=O)[C@H](CN)NC1=O)[C@@H](C)O [Compound 64] (Heptanoyl-[Dab]T[dS][Dab][Dap][dF]T[Dab][Dab]T; lactam 4-C) , what is its reported MIC?
## Output 0.25

* * *

Test system: Acinetobacter baumannii NCTC 13304 (OXA-27)
Format: cell-based
Conditions: NCTC 13304
Bridge positions count the residues as written; N and C are the ends. Square brackets hold non-standard residues; d marks the D form. Peptide text beside a SMILES is read from it. * marks the point of attachment. Nonanoyl = CCCCCCCCC(=O)*; dDab = NCC[C@@H](N)C(=O)O; Dab = NCC[C@H](N)C(=O)O; Dap = NC[C@H](N)C(=O)O
recorded-endpoint: MIC

## Input Given the molecule CCCCCCCCC(=O)N[C@@H](CN)C(=O)N[C@H](C(=O)N[C@H](CCN)C(=O)N[C@H]1CCNC(=O)[C@H]([C@@H](C)O)NC(=O)[C@H](CCN)NC(=O)[C@H](CCN)NC(=O)[C@H](CC(C)C)NC(=O)[C@@H](CC(C)C)NC(=O)[C@H](CCN)NC1=O)[C@@H](C)O [Compound 100] (Nonanoyl-[Dap]T[dDab][Dab][Dab][dL]L[Dab][Dab]T; lactam 4-C) , what is its reported MIC?
## Output 0.06 µg/mL

* * *

Tested on: Acinetobacter baumannii ABA19-1
Assay type: cell-based
Conditions: ABA19-1
Bridge positions count the residues as written; N and C are the ends. Square brackets hold non-standard residues; d marks the D form. Peptide text beside a SMILES is read from it. * marks the point of attachment. dOrn = NCCC[C@@H](N)C(=O)O; Nonanoyl = CCCCCCCCC(=O)*; X1 = CC[C@H](C)CCCCC(=O)*; Heptanoyl = CCCCCCC(=O)*; Dab = NCC[C@H](N)C(=O)O; Dap = NC[C@H](N)C(=O)O
Recorded measurements of MIC, one per entry
Field format: number, assumed mg/L, no unit text.

// solved cases for MIC follow
## Input Given the compound CCCCCCC(=O)N[C@@H](CCN)C(=O)N[C@H](C(=O)N[C@H](CO)C(=O)N[C@H]1CCNC(=O)[C@H]([C@@H](C)O)NC(=O)[C@H](CN)NC(=O)[C@H](CCN)NC(=O)[C@H]([C@@H](C)O)NC(=O)[C@@H](Cc2ccccc2)NC(=O)[C@H](CCN)NC1=O)[C@@H](C)O [Compound 84] (Heptanoyl-[Dab]T[dS][Dab][Dab][dF]T[Dab][Dap]T; lactam 4-C) , what is its reported MIC?
## Output 0.06

## Input Given the compound CCCCCCCCC(=O)N[C@@H](CCN)C(=O)N[C@H](C(=O)N[C@H](CCCN)C(=O)N[C@H]1CCNC(=O)[C@H]([C@@H](C)O)NC(=O)[C@H](CCN)NC(=O)[C@H](CCN)NC(=O)[C@H](CC(C)C)NC(=O)[C@@H](Cc2ccccc2)NC(=O)[C@H](CCN)NC1=O)[C@@H](C)O [Compound 45] (Nonanoyl-[Dab]T[dOrn][Dab][Dab][dF]L[Dab][Dab]T; lactam 4-C) , what is its reported MIC?
## Output 0.125

Next item in the queue.
## Input Given the compound CC[C@H](C)CCCCC(=O)N[C@@H](CCN)C(=O)N[C@H](C(=O)N[C@H](CCCN)C(=O)N[C@H]1CCNC(=O)[C@H]([C@@H](C)O)NC(=O)[C@H](CCN)NC(=O)[C@H](CCN)NC(=O)[C@H](CC(C)C)NC(=O)[C@@H](Cc2ccccc2)NC(=O)[C@H](CCN)NC1=O)[C@@H](C)O [Compound 41] (X1-[Dab]T[dOrn][Dab][Dab][dF]L[Dab][Dab]T; lactam 4-C) , what is its reported MIC?
## Output 0.125
